Each entry below lists one item and its recorded switch fluorescence ratio value.
# Test system: ATP;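 also: ATP exposure 15 min at 22 °C before imaging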
# protocol: switch fluorescence ratio, 500 uM ATP over buffer (Cy3 cluster intensity, sum of 5 cycles each) (fold (ratio)); higher = stronger signal-on switching upon ATP binding; sequences stand for … in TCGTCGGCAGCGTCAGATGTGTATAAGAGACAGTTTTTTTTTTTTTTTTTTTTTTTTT…TC
# condition info: aptamer strand: ATP DNA aptamer (quencher-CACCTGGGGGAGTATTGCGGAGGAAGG + anchor), 100 nM annealed; ATP concentration: 500 uM

{"columns": ["sequence chain", "switch fluorescence ratio"],
 "data": [
  ["TCAATGGTAT", 1.17],
  ["CGTGCAAAGG", 1.05],
  ["AGAACGGTAT", 1.05],
  ["GGGGATAAGT", 1.04],
  ["AGTTACCCGA", 1.04],
  ["CTGTGTCTTT", 0.995],
  ["GTCGGTATTT", 0.986],
  ["GAGGAAACAG", 1.02],
  ["TGAGATCGGC", 0.992],
  ["GTTTGCAAGT", 1.01],
  ["GCTAAAGGTA", 0.986],
  ["TGTAATCCGG", 0.986],
  ["GGGCGCAGCG", 0.978],
  ["ATAATGTGAA", 1.03],
  ["GACACAGGGG", 1.06],
  ["TATAAAGGGA", 1.04]
]}

---

Quick list: switch fluorescence ratio per entry.
# System: ATP;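 also: ATP exposure 15 min at 22 °C before imaging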
# protocol: switch fluorescence ratio, 500 uM ATP over buffer (Cy3 cluster intensity, sum of 5 cycles each) (fold (ratio)); higher = stronger signal-on switching upon ATP binding; sequences stand for … in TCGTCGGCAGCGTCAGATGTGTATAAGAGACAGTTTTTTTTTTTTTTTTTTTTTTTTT…TC
# condition info: aptamer strand: ATP DNA aptamer (quencher-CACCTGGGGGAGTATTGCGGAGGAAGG + anchor), 100 nM annealed; ATP concentration: 500 uM

{"columns": ["sequence chain", "switch fluorescence ratio"],
 "data": [
  ["TTTATAGCGT", 0.974],
  ["GGATAGTAGG", 0.996],
  ["CGTGGATTTA", 0.983],
  ["GAGGTTAGGA", 1],
  ["AGTGAGCTGG", 0.973],
  ["AGGATAACCC", 1.02],
  ["TGATAGTCTA", 1],
  ["TAATCGGGGG", 1.04],
  ["TCAGGAAAGG", 1],
  ["AGTTTGGGGC", 0.984],
  ["TCGGGACATA", 1.02],
  ["TCATAGATTT", 0.988],
  ["GTTAAGGGGA", 0.999],
  ["TGCTGTAACG", 1.02],
  ["CATTTAACGT", 0.991],
  ["GGGGACTGGT", 1],
  ["TCAGTGGGTT", 0.997],
  ["TTGTTTGTTG", 0.994],
  ["GGGGGTACAT", 0.99],
  ["AGCGTTTCCG", 0.99],
  ["CACTAATTTT", 1.03],
  ["TTGTATATGC", 1.16]
]}

---

# Tested on: ATP;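 also: ATP exposure 15 min at 22 °C before imaging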
# protocol: switch fluorescence ratio, 500 uM ATP over buffer (Cy3 cluster intensity, sum of 5 cycles each) (fold (ratio)); higher = stronger signal-on switching upon ATP binding; sequences stand for … in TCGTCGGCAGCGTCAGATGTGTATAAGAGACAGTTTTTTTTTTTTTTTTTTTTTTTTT…TC
# condition info: aptamer strand: ATP DNA aptamer (quencher-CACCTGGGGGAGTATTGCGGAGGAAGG + anchor), 100 nM annealed; ATP concentration: 500 uM

{"columns": ["sequence chain", "switch fluorescence ratio"],
 "data": [
  ["GATCCGGGTG", 1.38],
  ["AGACGTCCCA", 1.02],
  ["CCTGCTTTTT", 1.02],
  ["TGTATGTCGG", 0.959],
  ["AAAGGGTATC", 0.996],
  ["CGTTTGGGCA", 1.01],
  ["ACATGTTAGT", 1.01],
  ["AATGGGGCAA", 1.06],
  ["CACTAAGGGA", 0.996],
  ["AGAGGGGGG", 0.99],
  ["ATGGGTATGT", 1.01],
  ["ATTTTTAATC", 1.06],
  ["ATAGTGAGGT", 0.986],
  ["ATGGGGCCTG", 0.983],
  ["GCTCTGGCTA", 1.11],
  ["TGTGGGGACC", 1.05],
  ["CTATAATAGG", 0.961],
  ["ATGGCACAAT", 1.02],
  ["AGAGCTGCCT", 1.06],
  ["TTTTTGAACT", 1.01],
  ["TTTTTGTCGG", 0.996],
  ["GCAAGGGGGT", 1.05],
  ["GGTATTCATG", 1.01],
  ["GTGGGGATGG", 0.966],
  ["TGCGGGCAAG", 0.992],
  ["TTATCGATTT", 0.995],
  ["TGAAAATACC", 1.01],
  ["TTTGTGGTTC", 1],
  ["GTAATAGAGG", 0.977],
  ["GCTATGTAGG", 1],
  ["AGTCATTTTA", 0.999],
  ["TGGGTCATTG", 0.973],
  ["TTATTAGTGA", 0.99],
  ["TTTACCCTAT", 1.06],
  ["TCGGGGTATC", 1.03],
  ["AAAATGTGGG", 0.987],
  ["CCAAGCATAG", 3.63],
  ["TCTCGTGGGA", 1.01],
  ["TTATCCCGAA", 0.991],
  ["TTGTTTAATT", 0.979],
  ["GATCTGGTTT", 0.998],
  ["TCTAGAAGCG", 1],
  ["GGGGATGTAG", 0.979],
  ["TGGCAGACTC", 1.28],
  ["TAGGGAGGA", 0.98],
  ["AATTTTTAGA", 0.987],
  ["TGTTTCTCTG", 1.01],
  ["ATGGTCCATG", 0.995],
  ["TCGAGTTTGC", 0.931],
  ["TTGGGATACG", 1.18],
  ["TCAGGGCTAA", 1.02],
  ["TGGAGTTTGG", 1.15],
  ["GCGTCTTGGG", 0.96],
  ["TGAAATTTG", 1.01],
  ["GGACCGGGAC", 1.12],
  ["TTTTGTCGTG", 0.95],
  ["TTAGGAAGAT", 1.36],
  ["AGATTCACTT", 1.01],
  ["TCCTGGAGCG", 1.08],
  ["CCATCTAGTT", 0.968],
  ["AGTGGGAGGG", 1],
  ["ATGAGGTTAC", 0.988]
]}

Each recorded value in this set is attributed to the supplement of paper PMC10126150.
